- Species: Rattus norvegicus
- method_notes: DrugMatrix - Regimen: Daily Repeat
- Assay type: toxicity, organism-based, Sprague-Dawley
- Parameters: regimen Daily Repeat, gender Male, age 6-8 weeks
- condition: in vivo, po, 0 mg/kg, 72 h, tissue Blood, route oral GAVAGE, dose level Control, time 3 day, […]
For each record, write down the corresponding ABSOLUTE SEGMENTED NEUTROPHIL.
One number for each entry, in CELLS/uL.

Recorded results for 3 molecules are shown here.
- molecule: "CC(=O)Oc1ccccc1C(=O)O"
  assay_endpoint: "ABSOLUTE SEGMENTED NEUTROPHIL"
  value_unit: "CELLS/uL"
  endpoint_value: 633.67
- molecule: "Cc1ccc(C)c(OCCCC(C)(C)C(=O)O)c1"
  assay_endpoint: "ABSOLUTE SEGMENTED NEUTROPHIL"
  value_unit: "CELLS/uL"
  endpoint_value: 861.83
- molecule: "O=c1c(-c2ccc(O)cc2)coc2cc(O)cc(O)c12"
  assay_endpoint: "ABSOLUTE SEGMENTED NEUTROPHIL"
  value_unit: "CELLS/uL"
  endpoint_value: 535.5

Query: Output measured ABSOLUTE SEGMENTED NEUTROPHIL for this item: ClC(Cl)(Cl)Cl [CARBON TETRACHLORIDE]
Reply: 839.67

====

- Species on record: Rattus norvegicus
- method_notes: DrugMatrix - Regimen: Daily Repeat
- Format: toxicity, organism-based, Sprague-Dawley
- Design: regimen Daily Repeat, gender Male, age 6-8 weeks
- condition: in vivo, po, 0 mg/kg, 120 h, tissue Blood, route oral GAVAGE, dose level Control, time 5 day, vehicle 100 % WATER
For each record, write down the corresponding MONOCYTE.
Give bare numbers, in %.

Recorded results for 8 molecules are shown here.
- molecule: "O=c1[nH]c(=O)n(C2CCCO2)cc1F (stereo not given) [TEGAFUR]"
  value_unit: "%"
  MONOCYTE: 0.83
- molecule: "CN(C)CCC=C1c2ccccc2CCc2ccccc21 [AMITRIPTYLINE]"
  value_unit: "%"
  MONOCYTE: 0.83
- molecule: "CNC1=Nc2ccc(Cl)cc2C(c2ccccc2)=[N+]([O-])C1 [CHLORDIAZEPOXIDE]"
  value_unit: "%"
  MONOCYTE: 1.33
- molecule: "CN(C)C(=O)Oc1cccc([N+](C)(C)C)c1.[Br-] [NEOSTIGMINE BROMIDE]"
  value_unit: "%"
  MONOCYTE: 0.67
- molecule: "CCCC(C)C1(CC)C(=O)NC(=O)NC1=O (stereo not given) [PENTOBARBITAL]"
  value_unit: "%"
  MONOCYTE: 0.67
- molecule: "CCN(CC)CCNC(=O)c1ccc(N)cc1 [PROCAINAMIDE]"
  value_unit: "%"
  MONOCYTE: 1.83
- molecule: "CCN(CC)CCOC(=O)C1(C2CCCCC2)CCCCC1 [DICYCLOMINE]"
  value_unit: "%"
  MONOCYTE: 3
- molecule: "NC(=O)c1cccnc1 [NIACINAMIDE]"
  value_unit: "%"
  MONOCYTE: 3.17

Quick batch: MONOCYTE for everything below.
1. CCN(C(C)=O)c1cccc(-c2ccnc3c(C#N)cnn23)c1 [ZALEPLON]
2. NC12CC3CC(CC(C3)C1)C2 [AMANTADINE]

Reply:
[0.83, 0.83]
